meta.source: paper PMC8399014

PROPERTY NAME: melting point

Q. Given the entry COc1ccc2cc(C(C)COC(=O)c3cc(C(C)(C)C)c(O)c(C(C)(C)C)c3)ccc2c1 (centres unmarked) , report its measured melting point.
A. 154.1 to 155 °C

Q. And the next one, "Cc1c(Cl)cccc1Nc1ccccc1CO" ?
A. 48.4 to 48.7 °C

Q. And the next one, COc1ccc2cc(C(C)C(=O)OCc3cc(C(C)(C)C)c(O)c(C(C)(C)C)c3)ccc2c1 (centres unmarked) ?
A. 85 to 86 °C

Q. And the next one, Cc1c(Cl)cccc1Nc1ccccc1COC(=O)C1(C)CCc2c(C)c(O)c(C)c(C)c2O1 (centres unmarked) ?
A. 150.4 to 151.3 °C

Q. And the next one, "CC(C)(C)c1cc(C(=O)OCCc2ccccc2Nc2c(Cl)cccc2Cl)cc(C(C)(C)C)c1O" ?
A. 147.8 to 149.2 °C
